For each of the compounds below, state its log p a).
# protocol text: log P by HPLC on reversed-phase column (EEC directive 79/831 Annex V.A8)
# Assay type: physicochemical
# measurement setup: HPLC on reversed-phase column
Answers are plain numbers.

Recorded log p a), per entry:
O=C(Nc1cc(Cl)cc(Cl)c1)c1c([O-])n(Cc2ccc(Cl)nc2)c2cccc[n+]12    4.1
COC(=O)c1c([O-])n(Cc2cnc(Cl)s2)c2c(C)ccc[n+]12    1.46
Cc1ccc[n+]2c(C(=O)NC(C)(C)C)c([O-])n(Cc3cnc(Cl)s3)c12    2.69
Cc1ccc[n+]2c(C(=O)COC3CCCCC3)c([O-])n(Cc3cnc(Cl)s3)c12    2.77
O=C(Nc1cccc(C(F)(F)F)c1)c1c([O-])n(Cc2cnc(Cl)s2)c2cccc[n+]12    3.76
Cc1ccc(Cn2c([O-])c(C(=O)NC3CC3)[n+]3ccccc23)cn1    0.81
CNC(=O)c1c([O-])n(Cc2cnc(Cl)cn2)c2cccc[n+]12    1.15
Cc1cnc(Cn2c([O-])c(C(=O)Nc3c(F)cccc3F)[n+]3ccccc23)cn1    1.75
O=C(Nc1ncccc1Cl)c1c([O-])n(Cc2ccc(Cl)nc2)c2cccc[n+]12    1.46
Cc1ccc[n+]2c(C(=O)NC3CC3)c([O-])n(C(C)c3cnc(Cl)s3)c12 (stereo not shown)    2.2

// each listed compound needs a value for log p a)
1. O=C(NC1CC1)c1c([O-])n(Cc2ccc(C(F)(F)F)nc2)c2cccc[n+]12
2. CCC(CC)OCC(=O)c1c([O-])n(Cc2cnc(Cl)s2)c2c(C)ccc[n+]12
3. Cn1nccc1NC(=O)c1c([O-])n(Cc2cnc(Cl)s2)c2cccc[n+]12

Reply |
1. 1.87
2. 2.76
3. 1.6

###

# protocol text: log P by HPLC on reversed-phase column (EEC directive 79/831 Annex V.A8)
# Type: physicochemical
# measurement setup: HPLC on reversed-phase column
Classify: yes (1) when log p a) is strictly less than 2; no (0) when log p a) is not.

Ask | Bench note: check whether `O=C(Nc1c(F)cccc1F)c1c([O-])n(Cc2ccc(Cl)nc2)c2cccc[n+]12` shows log p a) below 2
Reply | no (0)

Ask | Bench note: check whether `CNC(=O)c1c([O-])n(Cc2cnc(C)cn2)c2cccc[n+]12` shows log p a) below 2
Reply | yes (1)

Ask | Bench note: check whether CC(c1ccc(Cl)nc1)n1c([O-])c(C(=O)Nc2ccccc2)[n+]2ccccc12 (centres unmarked) shows log p a) below 2
Reply | no (0)

Ask | Bench note: check whether `Cc1ccc[n+]2c(C(=O)Nc3ncccn3)c([O-])n(Cc3ccc(Cl)nc3)c12` shows log p a) below 2
Reply | yes (1)

Ask | Bench note: check whether CCNC(=O)c1c([O-])n(C(C)c2ccc(Cl)nc2)c2cccc[n+]12 (centres unmarked) shows log p a) below 2
Reply | yes (1)

Ask | Bench note: check whether `COC(=O)c1c([O-])n(Cc2cnc(C)cn2)c2cccc[n+]12` shows log p a) below 2
Reply | yes (1)

Ask | Bench note: check whether `O=C(Nc1cccnc1Cl)c1c([O-])n(Cc2cnc(Cl)s2)c2cccc[n+]12` shows log p a) below 2
Reply | no (0)

Ask | Bench note: check whether `Cc1ccc[n+]2c(C(=O)NCC3CCCCC3)c([O-])n(Cc3ccc(Cl)nc3)c12` shows log p a) below 2
Reply | no (0)

Ask | Bench note: check whether `COC(=O)c1c([O-])n(Cc2cnc(Cl)cn2)c2c(C)ccc[n+]12` shows log p a) below 2
Reply | yes (1)

Ask | Bench note: check whether `O=C(Nc1c(F)cccc1F)c1c([O-])n(Cc2cnc(Cl)s2)c2cccc[n+]12` shows log p a) below 2
Reply | no (0)

Ask | Bench note: check whether `Cc1ccc[n+]2c(C(=O)NC3CCCCC3)c([O-])n(Cc3ccc(Cl)nc3)c12` shows log p a) below 2
Reply | no (0)

Ask | Bench note: check whether CC(c1cnc(Cl)s1)n1c([O-])c(C(=O)NC2(C#N)CC2)[n+]2ccccc12 (centres unmarked) shows log p a) below 2
Reply | yes (1)

Ask | Bench note: check whether `CCCNC(=O)c1c([O-])n(Cc2cnc(Cl)cn2)c2cccc[n+]12` shows log p a) below 2
Reply | yes (1)

Ask | Bench note: check whether `Cn1nccc1NC(=O)c1c([O-])n(Cc2ccc(Cl)nc2)c2cccc[n+]12` shows log p a) below 2
Reply | yes (1)

Ask | Bench note: check whether `O=C(Nc1ncccc1[N+](=O)[O-])c1c([O-])n(Cc2cnc(Cl)s2)c2cccc[n+]12` shows log p a) below 2
Reply | yes (1)
